# Measurement Target: PKM2 (Homo sapiens)
# Sequence (P14618 whole entry): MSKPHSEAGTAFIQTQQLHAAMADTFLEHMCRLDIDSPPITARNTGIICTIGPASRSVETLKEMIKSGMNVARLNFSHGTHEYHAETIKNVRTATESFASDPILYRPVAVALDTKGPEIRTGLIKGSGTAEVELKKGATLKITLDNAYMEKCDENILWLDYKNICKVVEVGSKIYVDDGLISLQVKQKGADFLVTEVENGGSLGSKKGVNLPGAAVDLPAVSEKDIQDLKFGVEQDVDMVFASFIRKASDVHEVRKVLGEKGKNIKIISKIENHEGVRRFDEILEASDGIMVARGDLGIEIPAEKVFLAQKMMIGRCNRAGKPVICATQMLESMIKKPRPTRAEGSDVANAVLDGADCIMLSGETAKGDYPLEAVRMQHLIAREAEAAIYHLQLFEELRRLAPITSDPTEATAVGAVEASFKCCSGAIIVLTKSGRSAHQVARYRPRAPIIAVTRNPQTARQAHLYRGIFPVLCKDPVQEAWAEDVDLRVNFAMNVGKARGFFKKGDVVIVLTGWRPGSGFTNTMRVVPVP
# Experiment Description: PKM2 Biochemical Assay
# Condition Details: % maximum response in a biochemical assay as compared with Fructose 1,6-bisphosphate
Readout Type: Max. Resp. (%)

[P] Nc1cccc(CN(CCN2CCCCCC2)C(=O)c2cc(C(F)(F)F)n[nH]2)c1Cl
[Q] O=C(c1cc(C(F)(F)F)n[nH]1)N(Cc1ccccc1F)CC1CCOCC1
Exercise: Could you tell me which of these two has the smaller Max. Resp. figure? First: P Second: Q To answer, give the label that identifies your chosen option.
Key: Q

[I] O=C(c1cc(C(F)(F)F)n[nH]1)N(CCN1CCCCCC1)Cc1ccccc1Cl
[II] CCN1CCCC1CN(Cc1ccccc1Cl)C(=O)c1cc(C(F)(F)F)n[nH]1 (centres unmarked)
Exercise: Returns the identifier with the smallest measured Max. Resp. among I and II . Give the label under which the chosen entry appears.
Key: II
(II: 65%, I: 100%)
